Target: human Cav2.2 (Homo sapiens)
Test: Assessment of calcium channel activity using FLIPR (Ca2+ influx in IMR32 cells)
Settings: IMR32 cells endogenously expressing human Cav2.2; 60 minute pre-incubation; 2 μM nifedipine; depolarized with 80 mM KCl, 5 mM CaCl2
quantityMeasured: IC50 (nM)

These solved cases illustrate the format of a correct answer.
{"compound": "O=C(CN1CCC(c2ccccc2)(c2ccccc2)C1=O)NCC1CCN(Cc2ccccc2)C1 (centres unmarked) [Example 39]", "IC50, nM": 2600}
{"compound": "CC(c1cccc(C(F)(F)F)c1)N1CCN(C(=O)CN2CCC(c3ccccc3)(c3ccccc3)C2=O)CC1 (centres unmarked) [Example 44]", "IC50, nM": 770}
{"compound": "O=C(CN1CCCC(c2ccccc2)(c2ccccc2)C1=O)N1CCC(c2ccc(F)cc2)(c2ccc(F)cc2)C1 [Example 205]", "IC50, nM": 3320}
{"compound": "O=C(CN1CCC(c2ccc(C(F)(F)F)cc2)C1=O)N1Cc2ccc(C(F)(F)F)cc2C1 (centres unmarked) [Example 267]", "IC50, nM": 7350}
{"compound": "COc1cc(CN2CCN(CCCN3CCC(c4ccc(F)cc4)(c4ccc(F)cc4)C3=O)CC2)cc(OC)c1OC [Example 110]", "IC50, nM": 1470}

(P) O=C(CN1CCCC(c2ccc(F)cc2)(c2ccc(F)cc2)C1=O)N1CCN(Cc2cccc(C(F)(F)F)c2)CC1 [Example 175]
(Q) Cn1ccc(CNC(=O)CN2CCC(c3ccccc3)(c3ccccc3)C2=O)n1 [Example 4]
(R) N#Cc1ccc(-c2noc(CN3CCC(c4ccc(F)cc4)(c4ccc(F)cc4)C3=O)n2)cc1 [Example 235]
Returns the items ordered by IC50, from maximum to minimum. Write out the labels following the order that was asked for.
Q, R, P
(Q: 29800 nM, R: 3180 nM, P: 1250 nM)

---

Molecular target: human Cav2.2 (Homo sapiens, UniProt Q00975)
Sequence (Q00975 whole entry): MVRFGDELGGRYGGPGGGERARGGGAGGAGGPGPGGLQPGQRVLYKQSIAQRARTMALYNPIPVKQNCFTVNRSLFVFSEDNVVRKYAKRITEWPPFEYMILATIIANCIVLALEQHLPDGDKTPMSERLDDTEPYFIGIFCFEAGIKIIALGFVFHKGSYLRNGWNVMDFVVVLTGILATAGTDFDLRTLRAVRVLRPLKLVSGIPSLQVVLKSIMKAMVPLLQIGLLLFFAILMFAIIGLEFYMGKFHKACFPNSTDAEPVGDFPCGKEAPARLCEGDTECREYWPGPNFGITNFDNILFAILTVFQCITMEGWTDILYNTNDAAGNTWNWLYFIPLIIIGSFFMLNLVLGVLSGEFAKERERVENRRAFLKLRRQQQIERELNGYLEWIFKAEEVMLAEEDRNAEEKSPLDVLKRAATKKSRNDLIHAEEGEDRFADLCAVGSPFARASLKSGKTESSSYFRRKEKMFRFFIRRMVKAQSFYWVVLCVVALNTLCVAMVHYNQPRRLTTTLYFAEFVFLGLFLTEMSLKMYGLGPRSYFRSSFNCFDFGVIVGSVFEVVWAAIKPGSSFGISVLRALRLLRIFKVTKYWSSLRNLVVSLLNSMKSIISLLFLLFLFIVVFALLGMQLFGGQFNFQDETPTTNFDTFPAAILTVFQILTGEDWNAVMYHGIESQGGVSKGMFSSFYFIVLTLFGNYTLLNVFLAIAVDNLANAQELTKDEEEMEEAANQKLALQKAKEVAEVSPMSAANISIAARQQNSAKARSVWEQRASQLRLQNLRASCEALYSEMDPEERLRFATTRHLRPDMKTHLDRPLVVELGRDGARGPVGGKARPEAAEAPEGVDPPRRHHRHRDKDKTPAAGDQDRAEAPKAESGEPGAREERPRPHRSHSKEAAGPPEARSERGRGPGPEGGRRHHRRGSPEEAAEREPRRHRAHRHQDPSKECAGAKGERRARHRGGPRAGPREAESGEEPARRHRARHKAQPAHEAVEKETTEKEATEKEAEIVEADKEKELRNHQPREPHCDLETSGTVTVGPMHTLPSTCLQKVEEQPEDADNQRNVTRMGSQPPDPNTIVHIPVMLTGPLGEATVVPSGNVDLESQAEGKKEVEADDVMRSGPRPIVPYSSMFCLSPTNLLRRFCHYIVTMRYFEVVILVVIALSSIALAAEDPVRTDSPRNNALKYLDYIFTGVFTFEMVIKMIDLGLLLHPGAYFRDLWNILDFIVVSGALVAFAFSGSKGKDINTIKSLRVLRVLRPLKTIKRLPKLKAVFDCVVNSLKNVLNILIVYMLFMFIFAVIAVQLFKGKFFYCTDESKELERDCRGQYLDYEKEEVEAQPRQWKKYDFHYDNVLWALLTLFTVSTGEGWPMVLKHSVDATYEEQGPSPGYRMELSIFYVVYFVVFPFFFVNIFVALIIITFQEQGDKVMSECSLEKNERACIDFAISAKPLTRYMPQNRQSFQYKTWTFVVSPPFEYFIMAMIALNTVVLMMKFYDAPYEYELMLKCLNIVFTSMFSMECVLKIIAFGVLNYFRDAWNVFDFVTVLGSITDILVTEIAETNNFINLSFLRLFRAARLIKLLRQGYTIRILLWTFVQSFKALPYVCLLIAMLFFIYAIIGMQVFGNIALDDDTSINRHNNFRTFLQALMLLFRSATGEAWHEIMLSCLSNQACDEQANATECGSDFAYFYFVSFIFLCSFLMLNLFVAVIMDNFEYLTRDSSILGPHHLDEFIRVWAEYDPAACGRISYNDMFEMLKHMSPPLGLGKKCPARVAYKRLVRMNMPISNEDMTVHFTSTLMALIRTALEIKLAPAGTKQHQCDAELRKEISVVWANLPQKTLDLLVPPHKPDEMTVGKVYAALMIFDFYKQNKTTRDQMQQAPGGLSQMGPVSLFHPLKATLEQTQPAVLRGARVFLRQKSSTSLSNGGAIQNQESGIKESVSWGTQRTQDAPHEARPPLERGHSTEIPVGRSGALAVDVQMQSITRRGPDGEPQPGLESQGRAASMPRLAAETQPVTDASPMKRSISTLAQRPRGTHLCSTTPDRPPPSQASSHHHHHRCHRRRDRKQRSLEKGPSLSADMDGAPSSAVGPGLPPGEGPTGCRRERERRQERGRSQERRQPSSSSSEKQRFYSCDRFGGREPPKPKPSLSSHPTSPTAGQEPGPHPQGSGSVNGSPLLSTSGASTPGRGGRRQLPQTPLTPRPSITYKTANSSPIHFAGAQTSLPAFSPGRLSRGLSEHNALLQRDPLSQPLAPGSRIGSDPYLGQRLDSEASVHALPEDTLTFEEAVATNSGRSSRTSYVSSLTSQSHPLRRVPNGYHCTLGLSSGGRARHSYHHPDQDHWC
Sequence (P54289 25-951 partner limits assumed): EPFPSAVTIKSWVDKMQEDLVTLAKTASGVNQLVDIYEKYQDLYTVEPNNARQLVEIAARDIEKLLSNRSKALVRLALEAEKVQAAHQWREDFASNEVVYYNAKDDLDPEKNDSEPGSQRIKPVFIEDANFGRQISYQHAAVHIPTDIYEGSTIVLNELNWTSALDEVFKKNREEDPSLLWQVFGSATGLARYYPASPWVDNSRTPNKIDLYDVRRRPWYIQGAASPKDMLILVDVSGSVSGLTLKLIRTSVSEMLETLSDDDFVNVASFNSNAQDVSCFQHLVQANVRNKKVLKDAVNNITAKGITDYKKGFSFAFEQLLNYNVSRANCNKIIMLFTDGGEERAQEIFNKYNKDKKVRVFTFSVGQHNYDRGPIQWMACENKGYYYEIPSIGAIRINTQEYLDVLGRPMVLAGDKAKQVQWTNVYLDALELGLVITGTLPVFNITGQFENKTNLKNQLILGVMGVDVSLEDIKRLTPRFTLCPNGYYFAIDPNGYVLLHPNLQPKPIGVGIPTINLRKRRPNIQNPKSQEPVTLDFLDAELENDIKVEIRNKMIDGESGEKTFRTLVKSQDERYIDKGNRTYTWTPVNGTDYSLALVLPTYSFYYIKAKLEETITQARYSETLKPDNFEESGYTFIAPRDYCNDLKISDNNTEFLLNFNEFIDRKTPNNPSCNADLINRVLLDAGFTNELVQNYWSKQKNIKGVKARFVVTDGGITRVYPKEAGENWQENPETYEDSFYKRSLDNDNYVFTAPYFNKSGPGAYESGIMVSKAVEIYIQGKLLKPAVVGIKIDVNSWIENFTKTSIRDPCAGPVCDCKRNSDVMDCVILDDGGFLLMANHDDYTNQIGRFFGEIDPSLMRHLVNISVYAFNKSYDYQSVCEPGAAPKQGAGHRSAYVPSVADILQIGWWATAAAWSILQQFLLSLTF
Sequence (P54289 952-1103 partner limits assumed): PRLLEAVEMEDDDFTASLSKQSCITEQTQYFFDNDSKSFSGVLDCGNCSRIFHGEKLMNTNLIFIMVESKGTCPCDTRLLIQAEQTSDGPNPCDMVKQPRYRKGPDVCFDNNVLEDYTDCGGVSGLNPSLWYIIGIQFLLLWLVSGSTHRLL
Sequence (P54284 whole entry partner): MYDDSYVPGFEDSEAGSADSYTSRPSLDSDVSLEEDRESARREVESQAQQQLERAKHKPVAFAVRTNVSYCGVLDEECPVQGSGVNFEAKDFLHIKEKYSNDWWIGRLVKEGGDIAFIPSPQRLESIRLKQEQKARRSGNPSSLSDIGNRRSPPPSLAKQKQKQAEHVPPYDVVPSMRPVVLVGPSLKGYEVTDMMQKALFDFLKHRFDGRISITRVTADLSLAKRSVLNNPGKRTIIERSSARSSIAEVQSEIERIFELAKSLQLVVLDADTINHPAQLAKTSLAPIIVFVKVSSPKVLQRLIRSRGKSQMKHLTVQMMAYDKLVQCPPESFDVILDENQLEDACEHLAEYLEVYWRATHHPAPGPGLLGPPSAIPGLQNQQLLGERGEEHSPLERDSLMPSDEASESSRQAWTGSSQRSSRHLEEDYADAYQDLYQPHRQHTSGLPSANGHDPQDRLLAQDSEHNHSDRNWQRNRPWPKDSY
Assay: Assessment of calcium channel activity using FLIPR (Ca2+ influx in IMR32 cells)
Conditions: IMR32 cells endogenously expressing human Cav2.2; 60 minute pre-incubation; 2 μM nifedipine; depolarized with 80 mM KCl, 5 mM CaCl2
pIC50: −log10 of the molar value.
quantityMeasured: pIC50

These solved cases illustrate the format of a correct answer.
{"compound": "O=C(CN1CCCC(c2ccccc2)C1=O)N1Cc2ccc(F)cc2C1 (stereo not shown)", "valueObserved": 4.46}
{"compound": "O=C(CN1CCCC(c2ccccc2)C1=O)N1CCN(C(c2ccc(F)cc2)c2ccc(F)cc2)CC1 (stereo not shown)", "valueObserved": 6.00}
{"compound": "O=C(CN1CCC(c2ccccc2)(c2ccccc2)C1=O)N1CCN(Cc2c(Cl)cccc2Cl)CC1", "valueObserved": 6.05}
{"compound": "O=C(CN1CCCC(c2ccccc2)(c2ccccc2)C1=O)N1CCC(=NOCc2ccccc2)CC1", "valueObserved": 5.42}
{"compound": "O=C(CN1CCC(c2ccc(F)cc2)(c2ccc(F)cc2)C1=O)Nc1ccc(Cl)cn1", "valueObserved": 5.61}
{"compound": "C[C@@H]1CN(C(c2ccccc2)c2ccccc2)CCN1C(=O)CN1CCC(c2ccccc2)(c2ccccc2)C1=O", "valueObserved": 5.56}

(A) O=C(CN1CCCC(c2ccccc2)(c2ccccc2)C1=O)N1CCOC(c2ccccc2)C1 (stereo not shown)
(B) O=C(CN1CCCC(c2ccccc2)(c2ccccc2)C1=O)N1CCC(Oc2ccc(F)c(F)c2)CC1
Form field 'greater pIC50' accepts A or B ; which applies? Please identify the chosen entry by its label.
B
(B: 5.52, A: 5.14)

(1) O=C(CN1CCC(c2ccccc2)(c2ccccc2)C1=O)N1CCC[C@@H]2CN(C(c3ccccc3)c3ccccc3)C[C@@H]21
(2) O=C(CN1CCC(c2ccccc2)(c2ccccc2)C1=O)N1CCN(Cc2cccc(C(F)(F)F)c2)CC1
(3) O=C(CN1CCC(c2ccc(F)cc2)C1=O)N1CCc2ccccc2C1 (stereo not shown)
With regard to pIC50, arrange the entries in ascending order, please. Write out the labels following the order that was asked for.
3, 1, 2
(3: 4.98, 1: 5.64, 2: 5.99)

(A) O=C(CN1CCCC(c2ccccc2)(c2ccccc2)C1=O)N1C[C@@H]2CCCN(C(c3ccccc3)c3ccccc3)[C@@H]2C1
(B) O=C(CN1CCC(c2ccc(Cl)c(Cl)c2)C1=O)N1Cc2ccc(F)cc2C1 (stereo not shown)
(C) O=C1N(Cc2nc(-c3cncc(C(F)(F)F)c3)no2)CCC1(c1ccccc1)c1ccccc1
(D) O=C(CN1CCNC(c2ccccc2)C1=O)N1CCN(C(c2ccccc2)c2ccccc2)CC1 (stereo not shown)
Returns the items ordered by pIC50, from maximum to minimum. Write out the labels following the order that was asked for.
A, C, B, D
